Test system: CCRF-CEM
Test: Antiproliferative assay (MTT), CCRF-CEM
Type: cell-based, human
Conditions: Homo sapiens, CCRF-CEM, 96 h, read-out: CC50 CCRF-CEM
Method: Cell lines were purchased from American Type Culture Collection (ATCC). The absence of mycoplasma contamination was checked periodically by the Hoechst staining method. […] Cell viability was determined after 96 h at 37°C by the 3-(4,5-dimethylthiazol-2-yl)-2,5-diphenyl-tetrazolium bromide (MTT) method. Activity against solid-tumor derived cells was evaluated in exponentially growing cultures seeded at 5 × 10^4 cells/ml and allowed to adhere for 16 h to culture plates before the addition of the drugs. […]
CC50 less than 500 nM is Condition met; CC50 greater than or equal to 500 nM is Condition not met.

INSERT INTO assay_data (compound, subject_of_test, assigned_class) VALUES
  ('CC[C@]1(O)C[C@H]2CN(CCc3c([nH]c4ccccc34)[C@@](C(=O)OC)(c3cc4c(cc3OC)N(C=O)[C@H]3[C@@](O)(C(=O)OC)[C@H](OC(C)=O)[C@]5(CC)C=CCN6CC[C@]43[C@@H]65)C2)C1 [Vincristine, reference compound]', 'CCRF-CEM', 'Condition met'),
  ('O=C(O)/C=C/C(=O)Nc1ccc(-n2nnc3cc(Cl)c(Cl)cc32)cc1', 'CCRF-CEM', 'Condition not met'),
  ('O=C(/C=C/C(=O)Nc1ccc(-n2nnc3cc(Cl)c(Cl)cc32)cc1)Nc1ccc(-n2nnc3cc(Cl)c(Cl)cc32)cc1', 'CCRF-CEM', 'Condition met'),
  ('O=C(CCCC(=O)Nc1ccc(Cn2nnc3cc(Cl)c(Cl)cc32)cc1)Nc1ccc(Cn2nnc3cc(Cl)c(Cl)cc32)cc1', 'CCRF-CEM', 'Condition not met'),
  ('COc1cccc2c1C(=O)c1c(O)c3c(c(O)c1C2=O)C[C@@](O)(C(=O)CO)C[C@@H]3O[C@H]1C[C@H](N)[C@H](O)[C@H](C)O1 [Doxorubicin, reference compound]', 'CCRF-CEM', 'Condition met');
